Catalogue of pIC50 readings, one per entry.
Tested on: Aβtotal
Protocol Details: Screening for γ-secretase-modulating activity, Method 1: Aβtotal sandwich ELISA on SKNBE2 cell media
Type: cell-based
Conditions Used: Table 3a; SKNBE2 cells carrying APP 695 wild type, 18 hours; XLfit, top/bottom fixed to 100 and 0, hill slope 1
pIC50: −log10 of the molar value.
Observed Property: pIC50

[[record]]
smiles_entry = "Cc1ncnn1-c1ccc(Nc2cccc3c2nc(-c2ccc(F)cc2)n3C(C)C)cc1"
measured_result = "< 5.52"

[[record]]
smiles_entry = "COc1cc(Nc2cccc3c2nc(-c2ccc(F)cc2)n3C)ccc1-n1cnc(Br)c1"
measured_result = "< 6.00"

[[record]]
smiles_entry = "Cc1ncn(-c2ccc(Nc3cccc4oc(CC(C)C)nc34)nc2)n1"
measured_result = "< 5.52"

[[record]]
smiles_entry = "COc1cc(Nc2cccc3c2nc(-c2ccccc2F)n3C)ccc1-n1cnc(C)c1"
measured_result = "< 5.52"

[[record]]
smiles_entry = "Cc1ncn(-c2c(F)cc(Nc3cccc4c3nc(-c3ccc(F)cc3)n4C)cc2F)n1"
measured_result = "< 5.52"

[[record]]
smiles_entry = "CCCCc1nc2c(Nc3ccc(-n4cnc(C)n4)c(F)c3)cccc2n1C"
measured_result = 4.74

[[record]]
smiles_entry = "COc1cc(Nc2cccc3c2nc(CC(C)C)n3CC(F)(F)F)ccc1-n1cnc(C)n1"
measured_result = 5.55

[[record]]
smiles_entry = "COc1cc(Nc2cccc3c2nc(C)n3C)ccc1-n1cnc(C)c1"
measured_result = "< 5.00"

[[record]]
smiles_entry = "COCCn1c(CC(C)C)nc2c(Nc3ccc(-n4cnc(C)n4)cc3)cccc21"
measured_result = "< 5.00"

[[record]]
smiles_entry = "COc1cc(Nc2cccc3c2nc(C)n3Cc2ccccc2)ccc1-n1cnc(C)c1"
measured_result = "< 5.52"

[[record]]
smiles_entry = "COc1cccc(-c2nc3c(Nc4ccc(-n5cnc(C)n5)c(OC)c4)cccc3n2C(C)C)c1"
measured_result = "< 6.00"

[[record]]
smiles_entry = "COc1cc(Nc2cccc3c2nc(-c2ccc(F)cc2)n3C(C)C)ccc1-n1cnc(C)n1.Cl.Cl"
measured_result = "< 5.52"

